# target.desc: Human JAK2 (Homo sapiens (Human))
# Sequence (O60674 whole entry): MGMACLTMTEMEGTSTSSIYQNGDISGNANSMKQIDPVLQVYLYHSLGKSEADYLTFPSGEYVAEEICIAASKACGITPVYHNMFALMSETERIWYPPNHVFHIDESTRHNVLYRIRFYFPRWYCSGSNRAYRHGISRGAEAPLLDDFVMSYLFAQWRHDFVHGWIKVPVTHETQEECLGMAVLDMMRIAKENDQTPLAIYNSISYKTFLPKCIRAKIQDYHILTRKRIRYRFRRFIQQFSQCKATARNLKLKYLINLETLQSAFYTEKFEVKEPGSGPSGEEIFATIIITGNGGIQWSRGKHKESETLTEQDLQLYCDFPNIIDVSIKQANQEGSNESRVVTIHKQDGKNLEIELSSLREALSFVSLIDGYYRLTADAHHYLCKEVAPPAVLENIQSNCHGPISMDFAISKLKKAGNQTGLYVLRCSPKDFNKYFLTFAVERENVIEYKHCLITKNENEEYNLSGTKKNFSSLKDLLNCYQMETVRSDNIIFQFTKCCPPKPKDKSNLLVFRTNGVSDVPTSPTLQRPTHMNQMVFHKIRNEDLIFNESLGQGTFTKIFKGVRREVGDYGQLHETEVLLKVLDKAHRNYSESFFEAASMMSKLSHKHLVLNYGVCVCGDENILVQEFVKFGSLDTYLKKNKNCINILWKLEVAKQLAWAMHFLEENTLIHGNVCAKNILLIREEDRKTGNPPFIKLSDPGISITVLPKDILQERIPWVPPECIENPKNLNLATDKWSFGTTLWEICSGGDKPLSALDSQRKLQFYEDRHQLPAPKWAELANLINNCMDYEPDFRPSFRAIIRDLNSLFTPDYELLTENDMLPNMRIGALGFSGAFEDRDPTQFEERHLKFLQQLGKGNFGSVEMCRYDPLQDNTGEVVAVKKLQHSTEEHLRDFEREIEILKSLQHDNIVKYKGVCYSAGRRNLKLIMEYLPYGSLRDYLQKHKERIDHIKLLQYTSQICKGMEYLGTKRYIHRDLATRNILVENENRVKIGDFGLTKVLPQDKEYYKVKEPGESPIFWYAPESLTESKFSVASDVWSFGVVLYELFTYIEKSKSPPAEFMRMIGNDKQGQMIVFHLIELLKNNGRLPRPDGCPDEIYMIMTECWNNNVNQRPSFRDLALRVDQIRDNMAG
# measurement.protocol: In vitro kinase inhibition test, JAK2 (33P-ATP filter scintillation)
# Format: biochemical
# test.settings: compound at 1 uM; read-out: JAK2 kinase-phosphorylation inhibitory level (% inhibition)
# Experimental: 1. In Vitro Kinase Inhibition Test Kinases used were human-derived JAK1, JAK2, JAK3, and TYK2 (Millipore, Germany). Each of these kinases was diluted with a suitable buffer solution as described below, and then mixed with reagents. […]
Recorded inhibition at 1 µM for the following compounds
quantity: inhibition at 1 µM

> print(dat)
                                   compound            quantity  assay.result
1  COc1ccc(S(=O)(=O)N2C[C@H](N(C)c3ncnc4[nH]ccc34)C3(CC3)C2)cc1  inhibition at 1 µM           69%
2  CCS(=O)(=O)N1CC(N(C)c2ncnc3[nH]ccc23)C2(CC2)C1 (racemic)  inhibition at 1 µM           59%
3  CN(c1ncnc2[nH]ccc12)[C@H]1CN(C(=O)Nc2cc(Cl)ccc2Cl)CC12CC2  inhibition at 1 µM           -1%
4  CC(=O)NCC(=O)N1CC(N(C)c2ncnc3[nH]ccc23)C2(CC2)C1 (centres unmarked)  inhibition at 1 µM          -37%
5  CCS(=O)(=O)N1C[C@@H](N(C)c2ncnc3[nH]ccc23)C2(CC2)C1  inhibition at 1 µM           13%
